Tested on: Aspergillus niger
test protocol: Fungal evaluation: growth prevention of Aspergillus niger in mineral salts-glucose medium, synergism by the method of Kull
Type: cell-based
condition summary: combination of S-chloromethyl-S'-hexylcyanodithioimidocarbimate (A) with the named second microbicide (B); Aspergillus niger, 7 days, 25° C.; X<1 synergistic, X=1 additive, X>1 antagonistic
endpoint: X (QA/Qa+QB/Qb), Test 2
// response body must contain only the number

Fill in: X (QA/Qa+QB/Qb), Test 2 of O=C(CBr)c1ccc(O)cc1 [BHAP, 2-bromo-4′-hydroxyacetophenone] is ___
1.0

Fill in: X (QA/Qa+QB/Qb), Test 2 of CCCCCCCCn1sc(Cl)c(Cl)c1=O is ___
0.5

Fill in: X (QA/Qa+QB/Qb), Test 2 of CCCCNC(=O)OCC#CI [IPBC, 3-iodo-2-propynyl butyl carbamate] is ___
0.3

Fill in: X (QA/Qa+QB/Qb), Test 2 of N#CSCSC#N [MTC, Methylene-bis(thiocyanate)] is ___
0.46

Please examine the following record next.
Fill in: X (QA/Qa+QB/Qb), Test 2 of N#CSCSc1nc2ccccc2s1 [TCMTB, 2-(Thiocyanomethylthio)benzothiazole] is ___
0.25

* * *

Tested on: Aspergillus niger
test protocol: Fungal evaluation: growth prevention of Aspergillus niger in mineral salts-glucose medium, synergism by the method of Kull
Format: cell-based
condition summary: compound A in mixture with the named compound B; complete prevention of growth of Aspergillus niger for seven days
Examples of compounds with documented QA = lowest concentration of compound A in the mixture which produced an end point follow.
Use ppm active ingredient as the unit, but write only the number.

Fill in: QA = lowest concentration of compound A in the mixture which produced an end point of CCCCNC(=O)OCC#CI [IPBC, 3-iodo-2-propynyl butyl carbamate] is ___
0.025

* * *

Examples of compounds with documented Qb = lowest concentration of compound B acting alone which produced an end point follow.
System: Aspergillus niger
test protocol: Fungal evaluation: growth prevention of Aspergillus niger in mineral salts-glucose medium, synergism by the method of Kull
Format: cell-based
condition summary: named compound B alone; complete prevention of growth of Aspergillus niger for seven days
Use ppm active ingredient as the unit, but write only the number.

Fill in: Qb = lowest concentration of compound B acting alone which produced an end point of N#CSCSc1nc2ccccc2s1 [TCMTB, 2-(Thiocyanomethylthio)benzothiazole] is ___
1.0

Fill in: Qb = lowest concentration of compound B acting alone which produced an end point of CCCCNC(=O)OCC#CI [IPBC, 3-iodo-2-propynyl butyl carbamate] is ___
0.35

Please examine the following record next.
Fill in: Qb = lowest concentration of compound B acting alone which produced an end point of CCCCCCCCn1sc(Cl)c(Cl)c1=O is ___
0.2

* * *

Examples of compounds with documented QA = lowest concentration of compound A in the mixture which produced an end point follow.
Test system: Aspergillus niger
test protocol: Fungal evaluation: growth prevention of Aspergillus niger in mineral salts-glucose medium, synergism by the method of Kull
Assay type: cell-based
condition summary: compound A in mixture with the named compound B; complete prevention of growth of Aspergillus niger for seven days
Use ppm active ingredient as the unit, but write only the number.

I'm curious: which QA = lowest concentration of compound A in the mixture which produced an end point was measured for O=C(CBr)c1ccc(O)cc1 [BHAP, 2-bromo-4′-hydroxyacetophenone] tested on Aspergillus niger?
0.3

I'm curious: which QA = lowest concentration of compound A in the mixture which produced an end point was measured for CCCCCCCCn1sccc1=O tested on Aspergillus niger?
0.1

I'm curious: which QA = lowest concentration of compound A in the mixture which produced an end point was measured for N#CSCSc1nc2ccccc2s1 tested on Aspergillus niger?
0.15

I'm curious: which QA = lowest concentration of compound A in the mixture which produced an end point was measured for N#CSCSC#N [MTC, Methylene-bis(thiocyanate)] tested on Aspergillus niger?
0.05

Please examine the following record next.
I'm curious: which QA = lowest concentration of compound A in the mixture which produced an end point was measured for CCCCCCCCn1sc(Cl)c(Cl)c1=O tested on Aspergillus niger?
0.05
